target_desc: MAPKAPK2 (MK-2) (Homo sapiens, UniProt P49137)
Sequence (P49137 whole entry, species assumed): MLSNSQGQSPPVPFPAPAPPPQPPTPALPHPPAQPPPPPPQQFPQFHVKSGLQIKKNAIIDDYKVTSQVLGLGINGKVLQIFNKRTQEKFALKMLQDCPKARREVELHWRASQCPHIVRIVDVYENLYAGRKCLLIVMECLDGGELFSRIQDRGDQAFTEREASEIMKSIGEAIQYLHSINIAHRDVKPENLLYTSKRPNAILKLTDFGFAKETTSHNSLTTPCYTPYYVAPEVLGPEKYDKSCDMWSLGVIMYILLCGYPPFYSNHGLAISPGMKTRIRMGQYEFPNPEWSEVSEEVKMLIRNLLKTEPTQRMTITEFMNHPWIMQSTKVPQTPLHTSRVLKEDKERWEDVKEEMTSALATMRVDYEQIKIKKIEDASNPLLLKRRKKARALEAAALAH
test_name: Determination of MK-2 IC50 (HSP-peptide phosphorylation, anion exchange resin capture assay)
Format: biochemical
assay_context: Table 1, phenoxypyrazole MK-2 inhibitors; read-out: MK-2 Avg, IC50
Reported IC50 values are given for each entry in this list.
Hi! Could you send only the number? It should be in µM, unit omitted.

In [3]: df
Out[3]:
                                test_smiles  meas_value
0          O=C(O)c1[nH]nc2c1CCc1cc(O)ccc1-2        19.6
1  COc1cc2c(cc1-c1ccc([N+](=O)[O-])cc1)-c1nn(CCCNC(=O)OC(C)(C)C)c(C(=O)O)c1CC2        37.4

Read off the recorded IC50 for NCCCn1nc2c(c1C(=O)O)CCc1cc(O)c(-c3ccncc3)cc1-2
18.8

Read off the recorded IC50 for NCCCn1nc2c(c1C(=O)O)CCc1cc(O)ccc1-2
2.09

Read off the recorded IC50 for COc1cc2c(cc1-c1cccn1C(=O)OC(C)(C)C)-c1nn(CCCNC(=O)OC(C)(C)C)c(C(=O)O)c1CC2
148
